Exercise: for every item that follows, state its recorded EMAX (% relative to control).
- target-under-test: T1, native mouse MET on living mouse cells (mouse, UniProt P16056 25-1379)
- T1 construct: whole, on cells; also called Mouse cells (MLP29)
- protocol-notes: flow cytometry, MLP29 cells
One number for each entry, in %.

Please review the following examples before continuing.
chimeric llama-human IgG1 mAb 71G3 (antibody, V domains shown) VH: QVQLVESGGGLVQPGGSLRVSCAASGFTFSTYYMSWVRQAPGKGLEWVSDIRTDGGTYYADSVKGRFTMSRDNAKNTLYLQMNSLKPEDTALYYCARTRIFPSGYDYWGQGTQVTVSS VL: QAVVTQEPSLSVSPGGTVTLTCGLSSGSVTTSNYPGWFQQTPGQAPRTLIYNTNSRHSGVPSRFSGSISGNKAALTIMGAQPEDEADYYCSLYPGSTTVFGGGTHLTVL: 116
chimeric llama-human IgG1 mAb 71A3 (antibody, V domains shown) VH: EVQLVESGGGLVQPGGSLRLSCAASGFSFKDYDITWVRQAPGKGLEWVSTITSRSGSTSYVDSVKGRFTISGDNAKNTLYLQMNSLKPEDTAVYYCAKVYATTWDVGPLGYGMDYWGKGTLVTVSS VL: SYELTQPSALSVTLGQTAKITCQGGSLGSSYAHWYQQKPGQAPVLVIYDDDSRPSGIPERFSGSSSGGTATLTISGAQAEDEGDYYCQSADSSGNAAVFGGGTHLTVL: 144

Here is the next item to consider.
The value of EMAX (% relative to control) measured for the binder chimeric llama-human IgG1 mAb 76H10 (antibody, V domains shown) VH: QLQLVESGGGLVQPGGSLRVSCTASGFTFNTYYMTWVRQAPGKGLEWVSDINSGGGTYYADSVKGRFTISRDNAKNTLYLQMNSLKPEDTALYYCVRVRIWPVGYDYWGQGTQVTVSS VL: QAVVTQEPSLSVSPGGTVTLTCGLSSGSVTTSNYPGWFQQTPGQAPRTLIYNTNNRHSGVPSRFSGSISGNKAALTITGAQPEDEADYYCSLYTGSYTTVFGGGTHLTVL turned out to be 124
